Test system: Rh18 complex spheroid viability, percent test/control
Assay: Anticancer human tumor Rh18 cell line growth inhibition [Asc]; active = viability on the fitted dose curve at most 10% of control; inactive = the rest;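 note: spheroids exposed to compound for 7 days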
Conditions: second compound 3 µM; first compound 0.0316 µM
Labels: active, inactive

compound	class.name
O=C(c1cc(Cc2n[nH]c(=O)c3ccccc23)ccc1F)N1CCN(C(=O)C2CC2)CC1 + CCN1C(C(=O)NC23CCC(C(=O)O)(CC2)CC3)C(c2cccc(Cl)c2F)C2(C(=O)Nc3cc(Cl)ccc32)C12CCCCC2	inactive
O=C(c1ccc(F)c(F)c1Nc1ccc(I)cc1F)N1CC(O)([C@@H]2CCCCN2)C1 + CCN1C(C(=O)NC23CCC(C(=O)O)(CC2)CC3)C(c2cccc(Cl)c2F)C2(C(=O)Nc3cc(Cl)ccc32)C12CCCCC2	active
CCN1CCN(Cc2ccc(Nc3ncc(F)c(-c4cc(F)c5nc(C)n(C(C)C)c5c4)n3)nc2)CC1 + CCN1C(C(=O)NC23CCC(C(=O)O)(CC2)CC3)C(c2cccc(Cl)c2F)C2(C(=O)Nc3cc(Cl)ccc32)C12CCCCC2	active
NC1CCC(NC2CC2c2ccccc2)CC1 (stereo not given) + CCN1C(C(=O)NC23CCC(C(=O)O)(CC2)CC3)C(c2cccc(Cl)c2F)C2(C(=O)Nc3cc(Cl)ccc32)C12CCCCC2	inactive
C=CC(=O)N1CCN(c2nc(=O)n(-c3c(C)ccnc3C(C)C)c3nc(-c4c(O)cccc4F)c(F)cc23)C(C)C1 (stereo not given) + CCN1C(C(=O)NC23CCC(C(=O)O)(CC2)CC3)C(c2cccc(Cl)c2F)C2(C(=O)Nc3cc(Cl)ccc32)C12CCCCC2	inactive
C=C(F)C(=O)N1CCN(c2nc(OCC3CCCN3C)nc3c2CCN(c2cccc4cccc(Cl)c24)C3)CC1CC#N (stereo not given) + CCN1C(C(=O)NC23CCC(C(=O)O)(CC2)CC3)C(c2cccc(Cl)c2F)C2(C(=O)Nc3cc(Cl)ccc32)C12CCCCC2	active
C#Cc1c(F)ccc2cc(O)cc(-c3ncc4c(N5CC6CCC(C5)N6)nc(OCC56CCCN5CC(F)C6)nc4c3F)c12 (stereo not given) + CCN1C(C(=O)NC23CCC(C(=O)O)(CC2)CC3)C(c2cccc(Cl)c2F)C2(C(=O)Nc3cc(Cl)ccc32)C12CCCCC2	inactive
Cn1ncnc1[C@H]1c2n[nH]c(=O)c3cc(F)cc(c23)N[C@@H]1c1ccc(F)cc1 + CCN1C(C(=O)NC23CCC(C(=O)O)(CC2)CC3)C(c2cccc(Cl)c2F)C2(C(=O)Nc3cc(Cl)ccc32)C12CCCCC2	active
CNC(C)C(=O)NC1CN(S(=O)(=O)c2cccc(S(=O)(=O)N3CCC4CCC(C(=O)NC(c5ccccc5)c5ccccc5)N4C(=O)C(NC(=O)C(C)NC)C3)c2)CCC2CCC(C(=O)NC(c3ccccc3)c3ccccc3)N2C1=O (stereo not given) + CCN1C(C(=O)NC23CCC(C(=O)O)(CC2)CC3)C(c2cccc(Cl)c2F)C2(C(=O)Nc3cc(Cl)ccc32)C12CCCCC2	active
COc1c(OCCCN2CCOCC2)ccc2c3n(c(=NC(=O)c4cnc(N)nc4)nc12)CCN3 + CCN1C(C(=O)NC23CCC(C(=O)O)(CC2)CC3)C(c2cccc(Cl)c2F)C2(C(=O)Nc3cc(Cl)ccc32)C12CCCCC2	active
